Values from PubChem BioAssay (NCI)

Test system: HOP-62 NSCLC
procedure.details: NCI tumour cell line growth inhibition, 48 h
reported.endpoint: TGI

# count of solved cases: 2
| compound | TGI |
| --- | --- |
| Cc1ccc(Nc2sc(C)cc2C#N)c([N+](=O)[O-])c1 | > 100 µM |
| COC1(OC)C2(Cl)C(Cl)=C(Cl)C1(Cl)C1COCC12 (centres undefined) | > 100 µM |

Respond only with TGI recorded for "COc1cc([C@@H]2c3cc4c(cc3[C@H](OC(C)=O)[C@H]3COC(=O)[C@H]23)OCO4)cc(OC)c1OC"
> 100 µM

Give the measured TGI for "CC(C)NC(=O)OCc1c(COC(=O)NC(C)C)c(-c2ccc[n+](COC(=O)C3CC3)c2)n2c1CCC2"
> 100 µM

For the compound CCCC#CC(O)(C(=O)OC1CCN(C)CC1)C1CCCCC1 (centres undefined) , give its measured TGI value.
> 100 µM

Write down TGI measured for item "CC(=O)O[C@H]1CC[C@@]2(C)C(=CC[C@@H]3[C@@H]2CC[C@]2(C)c4c(cc(C#N)c(=N)n4C(C)=O)C[C@@H]32)C1"
49.4 µM

State its TGI for this compound: CC(=O)O[C@H]1CCC2[C@@H]3CCC4Nc5c(cnn5-c5ccccc5)C[C@]4(C)C3CC[C@@]21C (some centres undefined)
95.7 µM

Tell me TGI reported for COc1ccc(-c2nc(N)c3ncn(C4OC(CO)C(O)C4O)c3n2)cc1 (centres undefined)
> 100 µM

Query TGI for "COc1ccccc1N=N/C(=N/NC(=O)c1ccc(C)cc1)c1ccc(N(CCC#N)CCC#N)cc1OC"
> 100 µM

Specify reported TGI for the compound shown: NC1=NC(c2ccccc2)CC(c2cc(Cl)cc(Br)c2O)=N1 (centres undefined)
25.1 µM

Hello, please tell me recorded TGI for this one: "COc1cc(C)[nH]c(=O)c1CN1CCc2c(Cl)cc([C@H](OC)C3COC3)c(Cl)c2C1=O"
> 100 µM

Quickly give me recorded TGI for CCCC1C(=O)C(CC)Cc2c(OC)ccc(OC)c21 (centres undefined)
> 100 µM

----------
System: MOLT-4 leukemia
procedure.details: NCI tumour cell line growth inhibition, 48 h
Property: log10(TGI); scope: individual compounds
A value of 2 here means TGI of 100 in µM, since values are log10.

Quick one: give measured log10(TGI) for "O=C1CC(c2ccc[nH]2)=NN1c1ccccc1"
1.93

----------
System: M14 melanoma
procedure.details: NCI tumour cell line growth inhibition, 48 h
reported.endpoint: TGI (µM)
Give a bare numeral; the unit µM is implied.

| molecule | reported.endpoint | unit.info | recorded.result |
| --- | --- | --- | --- |
| CCC1CCCCN1C(=S)N/N=C(\C)c1ccccn1 (configuration not stated) | TGI | µM | 1.96 |
| CCn1cc(C(=O)N/N=C/c2cccc(F)c2)c(=O)c2cc(F)c(N3CCNC(C)C3)c(F)c21 (configuration not stated) | TGI | µM | 3.37 |

Give the value of TGI reported for the following: OCCN=C1c2ccccc2C2C(c3ccccc31)C1c3ccccc3C(=NCCO)c3ccccc3C21 (configuration not stated)
42.3

Respond only with TGI recorded for "Cc1ccc2c(N/N=C\c3ccco3)cc(C)nc2n1"
4.04

----------
compounds and their reported TGI
System: DMS 114 small cell lung
procedure.details: NCI tumour cell line growth inhibition, 48 h

Past entries and their recorded results:
| compound | recorded.result |
| --- | --- |
| C[Si](C)(C)/C=C\CCCN1C(=O)CCC1=O | > 100 µM |
| CCOC(=O)CNC1C(NC(C)=O)C(OC)OC2COC(c3ccccc3)OC21 (stereo unspecified) | > 100 µM |
| CC1Cc2c(N)nc(N3CCOCC3)nc2NC1=O (stereo unspecified) | > 100 µM |
| CC(=O)O[C@H]1CCC2[C@@H]3CCC4Nc5c(cnn5-c5ccccc5)C[C@]4(C)C3CC[C@@]21C (stereo partly specified) | 58.3 µM |
| C[C@@H](NC1CCC[C@@H]1O)c1ccccc1 (stereo partly specified) | > 100 µM |

Then this compound:
Read the entry Cc1[nH]c2ccccc2c1C1CC(=O)NC1=O (stereo unspecified) and write its reported TGI.
> 100 µM

----------
Test system: HOP-62 NSCLC
procedure.details: NCI tumour cell line growth inhibition, 48 h
reported.endpoint: TGI

Consider the worked cases shown below.
| compound | TGI |
| --- | --- |
| C/C(=N\NS(=O)(=O)c1ccc(C)cc1)c1c(O)cc(C)oc1=O | > 100 µM |
| CN(C)Cc1cccc(CN(C)C)[c]1[Sn]([Br])([c]1ccccc1)[c]1ccccc1 | 39.5 µM |
| CC1=C(/C=C/C2=CC(=C\C(=O)O)/CC(C3=C(C)CCCC3(C)C)C2)C(C)(C)CCC1 (stereo unspecified) | 27 µM |
| N=c1oc2ccc(Cl)cc2cc1C(=O)NCc1ccccc1 | > 100 µM |
| CC(C)c1cccc(C(C)C)c1N=C(N)C#N | > 100 µM |
| NC12CC3CC4C1CC1CC2C(C3)C4(N)C1 | > 100 µM |

Find the measured TGI of "NCCCn1c2c(c3cc4c(cc3c1=O)OCO4)C(=O)c1ccccc1-2" with HOP-62 NSCLC as test system.
0.729 µM

Tell me TGI of "COc1ccc(Nc2nc(N)c(C(=O)c3ccccc3)s2)cc1" when tested on HOP-62 NSCLC.
> 100 µM

----------
Tested on: HT29 colon
procedure.details: NCI tumour cell line growth inhibition, 48 h; in the data active = GI50 below about 0.43 µM; inactive = the rest
The reply should be one of these categories: YES = active, NO = inactive

The examples below pair each entry with its known result.
| compound | classification |
| --- | --- |
| COc1cc([C@@H]2c3cc4c(cc3[C@H](OC(C)=O)[C@H]3COC(=O)[C@H]23)OCO4)cc(OC)c1OC | YES |
| C/C=C1\C(=O)O[C@@H]2C1C[C@@H]1O[C@H]2[C@H](C)CCC/C(C)=C/CC[C@@]1(C)O (stereo partly specified) | NO |
| Cc1cccc2c1O/C(=C\c1ncc([N+](=O)[O-])n1C)C2=O | YES |
| O=S(=O)(NCCCNc1cc(-c2cn(-c3ccccc3)nc2-c2cccc(O)c2)ccn1)c1cccc2ccccc12 | NO |
| Oc1ccc2ccccc2c1N=Nc1ccccn1 | NO |

Answer briefly: the call reported for "COc1cc2c(=O)n(CCCn3ccnc3)c3c4cc5c(cc4ccc3c2cc1OC)OCO5" in this assay.
NO

Recorded test call requested for O=C1CCC2=C3C4CCCCC4C(=O)C4CCCC(OC2C1)C34 (stereo unspecified)
NO

----------
System: SK-MEL-2 melanoma
procedure.details: NCI tumour cell line growth inhibition, 48 h; in the data active = GI50 below about 0.43 µM; inactive = the rest
I would appreciate it if you answered using one of these outcomes: active, inactive

Outcome? "O=C1/C(=C/c2ccccc2)CN(CCC(=O)N2C/C(=C\c3ccccc3)C(=O)/C(=C/c3ccccc3)C2)C/C1=C\c1ccccc1"
inactive

----------
Test system: T-47D breast
procedure.details: NCI tumour cell line growth inhibition, 48 h
reported.endpoint: TGI (µM)
Reply numerically in µM, unit not repeated.

Worked examples, 5 compounds total:
| compound | unit.info | TGI |
| --- | --- | --- |
| N#C/C(=C/C=C/c1ccccc1)S(=O)c1ccccc1 (centres undefined) | µM | 5.62 |
| CN(C)CCNC(=O)c1ccc(NCCCN(C)CCCNc2ccc(C(=O)NCCN(C)C)c3[nH]c4ccc([N+](=O)[O-])cc4c(=O)c23)c2c(=O)c3cc([N+](=O)[O-])ccc3[nH]c12 | µM | 2.55 |
| CCOP(=O)(OCC)/C(C#N)=C/c1cccn1N(C)C | µM | 96.3 |
| CC(C)(C)OC(=O)NC(Cc1ccc(OCc2ccccc2)cn1)C(=O)N1CCSCC1 (centres undefined) | µM | 49.6 |
| Cc1cccc2c1O/C(=C\c1ncc([N+](=O)[O-])n1C)C2=O | µM | 58.7 |

Return TGI (reported value) for this compound: CCC1CCCCN1C(=S)N/N=C(\C)c1ccccn1 (centres undefined)
1.63

Quote TGI reported for "COc1cc2c(=O)n(CCCn3ccnc3)c3c4cc5c(cc4ccc3c2cc1OC)OCO5" please.
7.82

Give me measured TGI, please, for this compound: CCOC(=O)COc1c(OC)cc(C2C3=C(COC3=O)Oc3cc4c(cc32)OCO4)cc1OC (centres undefined)
17.7

----------
System: OVCAR-8 ovarian
procedure.details: NCI tumour cell line growth inhibition, 48 h
reported.endpoint: TGI

The following compounds have reported results that may help.
| compound | target.entity | reported.endpoint | recorded.result |
| --- | --- | --- | --- |
| CC1(C)C(=O)C2(OS(=O)(=O)C(F)(F)F)CCC1C2 (centres undefined) | OVCAR-8 ovarian | TGI | > 100 µM |
| O=C1c2cccc3cc([N+](=O)[O-])cc(c23)C(=O)N1CCN1CCCC1 | OVCAR-8 ovarian | TGI | 4.38 µM |
| C/C(=N\O)c1cccc(Nc2nc3ccccc3c3occc23)c1 | OVCAR-8 ovarian | TGI | 32.8 µM |

Lab note: next compound to report on.
Supply reported TGI belonging to this compound: "COc1cc2c(=O)n(CCCn3ccnc3)c3c4cc5c(cc4ccc3c2cc1OC)OCO5"
41.9 µM
